Let's look at some compounds and their measured pIC50.
- Measurement target: GST-Xa-hAAK1 (Homo sapiens)
- Construct: GST (N); Factor Xa cleavage site (Xa) (internal)
- Sequence (Q2M2I8 whole entry): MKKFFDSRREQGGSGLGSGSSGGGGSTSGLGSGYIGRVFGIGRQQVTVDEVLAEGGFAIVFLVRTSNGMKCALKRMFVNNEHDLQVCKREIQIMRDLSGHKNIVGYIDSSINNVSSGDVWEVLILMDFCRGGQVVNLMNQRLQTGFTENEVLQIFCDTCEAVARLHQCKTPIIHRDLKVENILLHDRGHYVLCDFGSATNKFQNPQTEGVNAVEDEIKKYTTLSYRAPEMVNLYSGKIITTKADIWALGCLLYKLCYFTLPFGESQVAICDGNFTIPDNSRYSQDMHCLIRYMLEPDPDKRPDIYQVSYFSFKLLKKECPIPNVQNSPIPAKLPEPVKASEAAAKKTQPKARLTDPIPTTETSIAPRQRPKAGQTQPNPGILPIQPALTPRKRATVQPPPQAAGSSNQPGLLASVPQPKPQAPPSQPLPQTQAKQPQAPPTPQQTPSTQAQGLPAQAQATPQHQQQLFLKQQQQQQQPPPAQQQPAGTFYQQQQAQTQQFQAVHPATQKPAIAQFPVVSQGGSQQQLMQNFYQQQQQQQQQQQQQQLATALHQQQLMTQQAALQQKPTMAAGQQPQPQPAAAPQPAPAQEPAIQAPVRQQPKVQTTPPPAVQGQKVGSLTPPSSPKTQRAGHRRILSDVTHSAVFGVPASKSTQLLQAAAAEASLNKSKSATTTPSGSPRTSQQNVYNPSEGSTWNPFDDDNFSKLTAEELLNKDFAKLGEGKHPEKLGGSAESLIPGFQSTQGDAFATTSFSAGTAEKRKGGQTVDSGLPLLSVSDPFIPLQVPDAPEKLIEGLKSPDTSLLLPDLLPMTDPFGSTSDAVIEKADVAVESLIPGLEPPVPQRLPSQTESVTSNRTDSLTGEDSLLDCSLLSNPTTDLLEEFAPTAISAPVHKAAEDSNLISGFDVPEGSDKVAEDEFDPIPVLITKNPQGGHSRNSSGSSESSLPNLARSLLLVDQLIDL
- Test name: AAK1 Kinase Assay
- Condition: bacterially expressed GST-Xa-hAAK1 3.5 nM; ATP 22 μM; fluoresceinated peptide 1.5 μM; 3 hours at room temperature; Caliper LabChip 3000
Bear in mind: pIC50 is minus log10 of a mol/L concentration; give just that figure.

Would you please look over these solved cases?
Cc1cc(-c2ccnc3ccnn23)cnc1OC[C@@](C)(N)CC(C)C [Example 275]
8.66
CC(C)C[C@](C)(N)COc1ccc(-c2ccnc3cc[nH]c23)cc1F [Example 420]
8.96
CC(C)C[C@](C)(N)COc1ccc(-c2ccnc(NC3CCCC3)n2)cc1C(F)(F)F [Example 377]
8.13

Query compound follows.
Q: GET /values?readout=pIC50&item= CC(C)C[C@](C)(N)COc1ccc(-c2ccnc(NC3CCNCC3)c2)cc1C#N [Example 466]
Result: 7.19
